# Test system: normal kidney glomerular cells from green monkey (BGM)
# assay-overview: Cytotoxicity test (MTT) against BGM cells
# Format: cell-based
# condition-summary: BGM monkey kidney cells, MTT, 24 h; minimal lethal dose for 50% of cells
recorded-metric: MDL50 (µg/mL) Mean ± SD
A number alone suffices; assume µg/mL.

Recorded MDL50 (µg/mL) Mean ± SD for COC(=O)c1ccc2c(c1)[C@H]1COC3=C(C(=O)c4ccccc4C3=O)[C@H]1O2 (relative stereo) , please? 5.1

Likewise for COc1ccc2c(c1)O[C@@H]1C3=C(OC[C@H]21)C(=O)c1ccccc1C3=O (relative stereo) ? 24.2

Likewise for Cc1ccc(S(=O)(=O)N2c3ccccc3[C@H]3COC4=C(C(=O)c5ccccc5C4=O)[C@H]32)cc1 (relative stereo) ? 68.7
